Listing of entries alongside the reported pIC50.
- Tested on: RAW264.7
- PROTOCOL DESCRIPTION: Anti-inflammatory activity in mouse RAW264.7 cells assessed as inhibition of NO production
- Type: functional, cell-based
pIC50: −log10 of the molar value.

{"columns": ["STRUCTURE NOTATION", "EXPERIMENTAL TARGET", "pIC50"],
 "data": [
  ["CC1(C)CCC[C@@]23C[C@@](CC(=O)c4cc(O)ccc4O)(CC[C@H]12)C(=O)O3", "RAW264.7", 5.21],
  ["CC1(C)CCC[C@]23C[C@](CC(=O)c4cc(O)ccc4O)(CC[C@@H]12)C(=O)O3", "RAW264.7", 5.23]
]}
